Here the recorded pIC50 is given for each entry.
# target desc: Caspase-1 (Homo sapiens, UniProt P29466)
# Sequence (P29466 whole entry): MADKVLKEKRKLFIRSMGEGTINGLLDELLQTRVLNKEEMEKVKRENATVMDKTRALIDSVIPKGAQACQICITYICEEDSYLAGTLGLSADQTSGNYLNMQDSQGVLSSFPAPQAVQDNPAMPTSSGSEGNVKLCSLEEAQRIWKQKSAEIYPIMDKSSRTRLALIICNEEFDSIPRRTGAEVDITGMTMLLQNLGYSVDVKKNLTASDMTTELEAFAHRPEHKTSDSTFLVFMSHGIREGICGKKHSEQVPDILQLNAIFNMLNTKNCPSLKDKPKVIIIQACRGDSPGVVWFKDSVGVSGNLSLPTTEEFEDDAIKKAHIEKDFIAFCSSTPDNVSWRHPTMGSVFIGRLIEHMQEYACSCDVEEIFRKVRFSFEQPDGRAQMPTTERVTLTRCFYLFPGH
# protocol summary: Inhibition of caspase-1 in human THP1 cells assessed as decrease in LPS-induced IL-1beta secretion after overnight incubation by sandwich immunoassay
# Assay type: cell-based
// pIC50: -log10(molar conc.)

Cc1cc(Nc2ccc3ccccc3c2)ccc1C(=O)Nc1cn(C(C)C)c(=O)n(C2(C(=O)N[C@H]3CC(=O)OC(O)C3)CC2)c1=O (some centres not stated) : 6.44

Reported pIC50 of CCC(C(=O)N[C@H]1CC(=O)OC(O)C1)n1c(=O)c(NC(=O)c2ccc(Nc3ccc4ccccc4c3)cc2C)cn(C(C)C)c1=O (some centres not stated) : 6.68

Per the records, this molecule ( CC(C)n1cc(NC(=O)c2ccc(Nc3ccc4ccccc4c3)cc2)c(=O)n(CC(=O)N[C@H]2CC(=O)OC2O)c1=O (some centres not stated) ) has pIC50 equal to 6.85

Briefly, pIC50 measured for CCC(C(=O)N[C@H]1CC(=O)OC1O)n1c(=O)c(NC(=O)c2ncc(Nc3ccc4ccccc4c3)cc2C)cn(C(C)C)c1=O (some centres not stated) : 6.70

# molecule Cc1cc(Nc2ccc3ccccc3c2)ccc1C(=O)Nc1cn(C(C)C)c(=O)n(C2(C(=O)N[C@H]3CC(=O)OC3O)CC2)c1=O (some centres not stated) ; its pIC50 = 7.42

Field pIC50 (entry CC(C)n1cc(NC(=O)c2ccc(Nc3ccc4ccccc4c3)cc2)c(=O)n(C2(C(=O)N[C@H]3CC(=O)OC3O)CC2)c1=O (some centres not stated) ) reads 7.64

# pIC50 (molecule: CCC(C(=O)N[C@H]1CC(=O)OC1O)n1c(=O)c(NC(=O)c2ccc(Nc3ccc4ccccc4c3)cc2C)cn(C(C)C)c1=O (some centres not stated) ) is 7.12

====

# protocol summary: Intrinsic clearance in human epidermal keratinocyte S9 fraction assessed per mg of protein
# Type: ADME
Reported CL values for a set of molecules
Answer with a number only, understood to be in uL/min/mg protein.

Consider the following illustrative entries.
CCC(C(=O)N[C@H]1CC(=O)OC1O)n1c(=O)c(NC(=O)c2ncc(Nc3ccc4ccccc4c3)cc2C)cn(C(C)C)c1=O (stereo not given in full) : 2
CCC(C(=O)N[C@H]1CC(=O)OC(O)C1)n1c(=O)c(NC(=O)c2ccc(Nc3ccc4ccccc4c3)cc2C)cn(C(C)C)c1=O (stereo not given in full) : 2.9

Next molecule, please.
Memo: Cc1cc(Nc2ccc3ccccc3c2)ccc1C(=O)Nc1cn(C(C)C)c(=O)n(C2(C(=O)N[C@H]3CC(=O)OC(O)C3)CC2)c1=O (stereo not given in full) , reported CL: 3.5

====

# target desc: Caspase-1 (Homo sapiens, UniProt P29466)
# protocol summary: Inhibition of caspase-1 in human monocyte-derived macrophages assessed as decrease in LPS-induced IL-1beta secretion after 24 hrs by sandwich immunoassay
measure name: pIC50
Give only the number. pIC50 is defined as minus log10 of concentration in molar units.

With Caspase-1 (Homo sapiens, UniProt P29466) as the test system, Cc1cc(Nc2ccc3ccccc3c2)ccc1C(=O)Nc1cn(C(C)C)c(=O)n(C2(C(=O)N[C@H]3CC(=O)OC3O)CC2)c1=O (stereo partly specified) showed pIC50 of 6.80

====

# protocol summary: Lipophilicity, log D of the compound at pH 6.5 by chromatographic method
# Assay type: physicochemical
# conditions used: buffer
Lab note: anything with chromatographic logD below 3 is marked label 1; values at 3 or higher are marked label 0.

Below, 8 compounds whose answers are already recorded.
CC(C)n1cc(NC(=O)c2ccc(Nc3cnc4ccccc4n3)cc2)c(=O)n(CC(=O)N[C@H]2CC(=O)OC2O)c1=O (some centres not stated) : label 1
CC(C(=O)N[C@H]1CC(=O)OC1O)n1c(=O)c(NC(=O)c2ccc(Nc3cnc4ccccc4n3)cc2)cn(C)c1=O (some centres not stated) : label 1
CC(C)n1cc(NC(=O)c2ccc(Nc3cnc4ccccc4n3)cc2)c(=O)n(C(C)C(=O)N[C@H]2CC(=O)OC2O)c1=O (some centres not stated) : label 1
CC(C)n1cc(NC(=O)c2ccc(Nc3cnc4ccccc4n3)cc2)c(=O)n(C2(C(=O)N[C@H]3CC(=O)OC3O)CC2)c1=O (some centres not stated) : label 1
Cc1cc(Nc2ccc3ccccc3c2)ccc1C(=O)Nc1cn(C(C)C)c(=O)n(CC(=O)N[C@H]2CC(=O)OC2O)c1=O (some centres not stated) : label 0
CCC(C(=O)N[C@H]1CC(=O)OC(O)C1)n1c(=O)c(NC(=O)c2ccc(Nc3ccc4ccccc4c3)cc2C)cn(C(C)C)c1=O (some centres not stated) : label 0
CC(C)n1cc(NC(=O)c2ccc(Nc3ccc4ccccc4c3)cc2)c(=O)n(C2(C(=O)N[C@H]3CC(=O)OC3O)CC2)c1=O (some centres not stated) : label 0
CCC(C(=O)N[C@H]1CC(=O)OC1O)n1c(=O)c(NC(=O)c2ncc(Nc3ccc4ccccc4c3)cc2C)cn(C(C)C)c1=O (some centres not stated) : label 0

Alright, here's another compound for you.
Ask: Criterion: chromatographic logD strictly below 3. Is it met by Cc1cc(Nc2ccc3ccccc3c2)ccc1C(=O)Nc1cn(C(C)C)c(=O)n(C2(C(=O)N[C@H]3CC(=O)OC(O)C3)CC2)c1=O (some centres not stated) ?
Reply: label 0

====

# protocol summary: Phototoxicity in NHEK assessed as decrease in cell viability after 24 hrs in presence of UV light by neutral red uptake assay
# conditions used: human
measure name: Activity

Cc1cc(Nc2ccc3ccccc3c2)ccc1C(=O)Nc1cn(C(C)C)c(=O)n(C2(C(=O)N[C@H]3CC(=O)OC(O)C3)CC2)c1=O (some centres undefined) : Non-Toxic
CCC(C(=O)N[C@H]1CC(=O)OC1O)n1c(=O)c(NC(=O)c2ncc(Nc3ccc4ccccc4c3)cc2C)cn(C(C)C)c1=O (some centres undefined) : Toxic
CC(C)n1cc(NC(=O)c2ccc(Nc3ccc4ccccc4c3)cc2)c(=O)n(CC(=O)N[C@H]2CC(=O)OC2O)c1=O (some centres undefined) : Toxic
Cc1cc(Nc2ccc3ccccc3c2)ccc1C(=O)Nc1cn(C(C)C)c(=O)n(C2(C(=O)N[C@H]3CC(=O)OC3O)CC2)c1=O (some centres undefined) : Non-Toxic

====

# target desc: Caspase-5 (Homo sapiens, UniProt P51878)
# Sequence (P51878 137-327 limits assumed): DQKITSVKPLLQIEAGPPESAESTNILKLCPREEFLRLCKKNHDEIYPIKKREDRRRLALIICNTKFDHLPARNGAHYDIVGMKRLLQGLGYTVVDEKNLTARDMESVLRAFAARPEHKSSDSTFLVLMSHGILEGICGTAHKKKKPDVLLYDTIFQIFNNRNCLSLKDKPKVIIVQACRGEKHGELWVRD
# Sequence (P51878 347-434 limits assumed): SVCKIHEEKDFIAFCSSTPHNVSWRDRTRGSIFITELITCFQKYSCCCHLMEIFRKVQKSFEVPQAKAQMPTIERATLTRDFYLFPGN
# protocol summary: Inhibition of human recombinant caspase-5 using AC-WEHD-AMC as substrate at Km after 20 mins by fluorescence assay
measure name: IC50 (nM)
State just the number; it will be interpreted in nM.

Form field IC50 for item Cc1cc(Nc2ccc3ccccc3c2)ccc1C(=O)Nc1cn(C(C)C)c(=O)n(C2(C(=O)N[C@H]3CC(=O)OC3O)CC2)c1=O (stereo partly specified) on Caspase-5 (Homo sapiens, UniProt P51878): 2980

====

# target desc: Caspase-1 (Homo sapiens)
# protocol summary: Inhibition of human recombinant caspase-1 using AC-WEHD-AMC as substrate at Km after 20 mins by fluorescence assay
# conditions used: read-out: IC50
measure name: IC50 (nM)
Entry rule: numbers only, all in nM.

CC(C)n1cc(NC(=O)c2ccc(Nc3ccc4ccccc4c3)cc2)c(=O)n(CC(=O)N[C@H]2CC(=O)OC2O)c1=O (stereo partly specified) : 21

Entry CC(C)n1cc(NC(=O)c2ccc(Nc3cnc4ccccc4n3)cc2)c(=O)n(C(C)C(=O)N[C@H]2CC(=O)OC2O)c1=O (stereo partly specified) — recorded IC50 = 5.6

// IC50 value for Cc1cc(Nc2ccc3ccccc3c2)ccc1C(=O)Nc1cn(C(C)C)c(=O)n(C2(C(=O)N[C@H]3CC(=O)OC3O)CC2)c1=O (stereo partly specified) : 9.8

Field IC50 (entry CC(C)n1cc(NC(=O)c2ccc(Nc3cnc4ccccc4n3)cc2)c(=O)n(CC(=O)N[C@H]2CC(=O)OC2O)c1=O (stereo partly specified) ) reads 3

Record summary for CC(C)n1cc(NC(=O)c2ccc(Nc3cnc4ccccc4n3)cc2)c(=O)n(C2(C(=O)N[C@H]3CC(=O)OC3O)CC2)c1=O (stereo partly specified) : reported IC50 = 4.7

# IC50 of CC(C(=O)N[C@H]1CC(=O)OC1O)n1c(=O)c(NC(=O)c2ccc(Nc3cnc4ccccc4n3)cc2)cn(C)c1=O (stereo partly specified) = 5.6
